Molecular target: T1, AAV9
T1 construct: also called adeno-associated virus serotype 9
Assay: SPR, AAV on CM5 chip;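 further: surface plasmon resonance with AAV amine-coupled to the chip as ligand, nanobodies injected as analyte over a concentration series, rate constants and affinity fitted from binding curves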
MEASUREMENT NAME: Kd (nM)
# number only, unit nM dropped from output

Solved entries (count: 5):
binder="A4-011 (VHH) VHH: VQLQESGGGLVQAGGSLRLSCAASGSIFSINSMGWYRQAPGKQRELVATVTRGGNTNYAGSVKGRFTISRDNAKNTVYLQMNSLRPEDTAVYYCHVDEVRESSWTTSNLWGQGTQVTVSS" meas_value=132
binder="A4-036 (VHH) VHH: VQLQESGGGLAQAGGSLRLSCAASGRGFSINTMGWYRQAPGKQRELVAAVTRGGTTNYADSVKGRFTISRDNAKNTVYLQMNSLRPEDTAVYYCHVDEVRQSSWTTSNLWGQGTQVTVSS" meas_value=1620
binder="A4-023 (VHH) VHH: VQLQESGGGLVQPGGSLRLSCAASGSAFSINTMGWYRQAPGKQRELVASVTPGGSTNYADSVKGRFTISRDNAKNTIYLQMNSLRPEDTAVYYCHLDEVRESSWTTSNLWGQGTQVTVSS" meas_value=2.88
binder="A4-005 (VHH) VHH: VQLQESGGGLVQAGGSLRLSCAASGRHFSINTMGWYRQAPGKQRELVAAVTRGGGTNYAGSVKGRFTISRDNAKNTVYLQMNSLRPEDTAVYYCHIDEVRQSSWTTSNIWGQGTQVTVSS" meas_value=88.5
binder="A4-042 (VHH) VHH: VQLQESGGGLVQPGGSLRLSCAASGRAFSINTMGWYRQAPGKQRELVATVTRDGSTNYADSVKGRFTISRDNAKNTVYLQMNSLRPEDTAVYYCHVDEVRQSSWTTSNLWGQGTQVTVSS" meas_value=308

Give its Kd value. Item: A4-043 (VHH) VHH: VQLQESGGGLVQPGGSLRLSCAASGRAFSINTMGWYRQAPGKQRELVATVTRDGSTNYAGSVKGRFTISRDNAKNTVYLQMNSLRPEDTAVYYCHVDEVRQSSWTTSNLWGQGTQVTVSS
0.278
